Test System: Protein phosphatase 1D (Homo sapiens)
Method Summary: RapidFire Mass Spectrometry qHTS Assay for Modulators of WT P53-Induced Phosphatase 1 (WIP1) (AID 1347424);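 further: amount of dephosphorylated VEPPL-S-QETFS peptide product formed by WIP1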
Condition Info: WIP1 dephosphorylation of phosphopeptide, RapidFire MS; series mostly up to 63 µM
Source text: Assay Provider (PI): Nathan Coussens Ph. D. National Center for Advancing Translational Sciences (NCATS), Rockville, MD National Institute of Health (NIH), Bethesda, Maryland […] Here, we describe two orthogonal biochemical WIP1 activity assays that utilize phosphopeptides from native WIP1 substrates. We optimized a RapidFire MS assay to quantify the enzymatically dephosphorylated peptide reaction product in a 384-well format. […]
Inconclusive results are not listed. Calls of active or inactive are those of the source. The call rests on the fitted dose curve; in most records, active means well fitted inhibition curve with a large enough effect; inconclusive means small, poorly fitted or top-dose-only effect; inactive means no such curve, though single readings can be large or run the other way.

Compound	outcome
CN1CCC(=C2c3ccccc3C=Cc3ccccc32)CC1	inactive
Cc1cc(C(C)(C)C)cc(C)c1CC1=NCCN1	inactive
CC(COc1ccccc1)N(CCCl)Cc1ccccc1 (stereo unspecified)	inactive
Cc1cn([C@H]2C[C@H](N=[N+]=[N-])[C@@H](CO)O2)c(=O)[nH]c1=O	inactive
Cn1ccc2cc3c(cc21)CCN3C(=O)Nc1cccnc1	inactive
CC(C(=O)O)c1cccc(C(=O)c2ccccc2)c1 (stereo unspecified)	inactive
